The values you see were collected from ChEMBL document CHEMBL1142768.

For each of the compounds below, state its Ki.
experimental-details: Inhibitory constant against Adenosine A2A receptor using [3H]SCH-58261 as radio ligand
Set-up: species or system Homo sapiens
State the answer as a number, implicitly in nM.

Input line: Entry CC(C)(C)CNC1CCN(c2cccc(-c3cc4nc(-c5ccco5)nn4c(N)n3)c2)CC1 has what Ki?
Output line: 18

Input line: Quick one: Nc1nc(-c2cccc(N3CCC(N4CCOCC4)CC3)c2)cc2nc(-c3ccco3)nn12
Output line: 0.8

Input line: Quick one: CC(C)S(=O)(=O)N1CCN(c2cccc(-c3cc4nc(-c5ccco5)nn4c(N)n3)c2)CC1
Output line: 0.5

Input line: Quick one: Nc1nc(-c2cccc(N3CCC(=O)CC3)c2)cc2nc(-c3ccco3)nn12
Output line: 1.3
